Measured NanoBRET Fold Response by item
molecular target: P2RY11 (Homo sapiens); construct: purchased Promega (in-house HiBiT-GPCR construct library, NanoBRET); assay: NanoBRET screen HiBiT-P2RY11 in HEK293; format: binding; details: P2RY11; tracer 0.1μM
Sequence (Q96G91 whole entry, one chain of several): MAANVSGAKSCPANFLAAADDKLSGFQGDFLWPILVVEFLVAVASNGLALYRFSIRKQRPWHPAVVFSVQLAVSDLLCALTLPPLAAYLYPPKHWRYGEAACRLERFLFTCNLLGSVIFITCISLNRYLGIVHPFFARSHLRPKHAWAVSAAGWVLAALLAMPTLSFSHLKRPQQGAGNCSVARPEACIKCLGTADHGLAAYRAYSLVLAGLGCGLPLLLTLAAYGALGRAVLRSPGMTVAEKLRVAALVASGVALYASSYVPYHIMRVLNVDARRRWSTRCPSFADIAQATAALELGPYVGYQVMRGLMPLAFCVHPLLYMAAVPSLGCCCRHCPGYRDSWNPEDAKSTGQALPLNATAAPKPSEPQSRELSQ

| Molecule | NanoBRET Fold Response |
| --- | --- |
| Cc1nc2n(c(=O)c1CCN1CCC(c3noc4cc(F)ccc34)CC1)CCCC2OC(=O)NCCOCCOCCOCCOCCNC(=O)CCc1ccc2n1[B-](F)(F)[N+]1=C(c3ccc[nH]3)C=CC1=C2 (centres unmarked) | 1.04 |
| Cc1cc2c(s1)Nc1ccccc1N=C2N1CCN(CCCNC(=O)CCOCCOCCOCCOCCNC(=O)CCc2ccc3n2[B-](F)(F)[N+]2=C(c4ccc[nH]4)C=CC2=C3)CC1 | 1.00 |
| CC(C)N(CC[C@H](c1ccccc1)c1cc(CCNC(=O)CCOCCOCCOCCOCCNC(=O)CCc2ccc3n2[B-](F)(F)[N+]2=C(c4ccc[nH]4)C=CC2=C3)ccc1O)C(C)C | 1.31 |
| N#CN=C(NCCCOc1cccc(CN2CCCCC2)c1)NCCNC(=O)CCOCCOCCOCCOCCNC(=O)CCc1ccc2n1[B-](F)(F)[N+]1=C(c3ccc[nH]3)C=CC1=C2 | 1.14 |
| CC(C)N(CC[C@H](c1ccccc1)c1cc(CCNC(=O)c2ccc(CNC(=O)CCc3ccc4n3[B-](F)(F)[N+]3=C(c5ccc[nH]5)C=CC3=C4)cc2)ccc1O)C(C)C | 1.07 |
| COc1ccccc1N1CCN(CCCCN2C(=O)c3ccc(CNC(=O)CCOCCOCCOCCOCCNC(=O)CCc4ccc5n4[B-](F)(F)[N+]4=C(c6ccc[nH]6)C=CC4=C5)cc3C2=O)CC1 | 1.09 |
| COc1ccccc1N1CCN(CCCCN2C(=O)c3ccc(CNC(=O)CCOCCNC(=O)c4ccc(CNC(=O)CCc5ccc6n5[B-](F)(F)[N+]5=C(c7ccc[nH]7)C=CC5=C6)cc4)cc3C2=O)CC1 | 1.05 |
| O=C(CCc1ccc2n1[B-](F)(F)[N+]1=C(c3ccc[nH]3)C=CC1=C2)NCCOCCOCCNC(=O)OCCOCCN1CCN(C2=Nc3ccccc3Sc3ccccc32)CC1 | 1.05 |
| O=C(CCc1ccc2n1[B-](F)(F)[N+]1=C(c3ccc[nH]3)C=CC1=C2)NCc1ccc(C(=O)NCCOCCC(=O)N[C@@H]2CC[C@@]3(O)[C@H]4Cc5ccc(O)c6c5[C@@]3(CCN4CC3CC3)[C@H]2O6)cc1 [Naltrexone-3-NB590] | 1.26 |
| O=C(CCOCCOCCOCCOCCNC(=O)CCc1ccc2n1[B-](F)(F)[N+]1=C(c3ccc[nH]3)C=CC1=C2)NCCCN1CCN(C2=Nc3ccccc3Oc3ccc(Cl)cc32)CC1 | 1.02 |
| CCCn1c(=O)c2[nH]c(-c3ccc(OCC(=O)NCCNC(=O)CCOCCNC(=O)c4ccc(CNC(=O)CCc5ccc6n5[B-](F)(F)[N+]5=C(c7ccc[nH]7)C=CC5=C6)cc4)cc3)nc2n(CCC)c1=O | 1.21 |

====

target: NTSR1 (Homo sapiens, UniProt P30989); construct: purchased Promega (in-house HiBiT-GPCR construct library, NanoBRET); assay: NanoBRET screen HiBiT-NTSR1 in HEK293; assay type: binding; conditions: NTSR1; tracer 0.1μM
Sequence (P30989 whole entry): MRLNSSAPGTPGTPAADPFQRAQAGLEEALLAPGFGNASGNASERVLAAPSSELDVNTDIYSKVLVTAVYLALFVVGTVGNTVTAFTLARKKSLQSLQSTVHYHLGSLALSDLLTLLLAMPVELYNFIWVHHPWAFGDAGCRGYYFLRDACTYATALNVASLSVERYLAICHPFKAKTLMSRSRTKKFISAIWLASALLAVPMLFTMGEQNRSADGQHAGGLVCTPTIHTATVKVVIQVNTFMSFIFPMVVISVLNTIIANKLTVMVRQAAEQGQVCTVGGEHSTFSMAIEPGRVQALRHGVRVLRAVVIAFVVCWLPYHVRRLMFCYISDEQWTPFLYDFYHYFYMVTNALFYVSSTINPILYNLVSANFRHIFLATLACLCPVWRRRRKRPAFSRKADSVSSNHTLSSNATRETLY
Measured NanoBRET Fold Response by item

| Compound | Assay system | NanoBRET Fold Response |
| --- | --- | --- |
| Cc1nc2n(c(=O)c1CCN1CCC(c3noc4cc(F)ccc34)CC1)CCCC2OC(=O)NCCOCCOCCOCCOCCNC(=O)CCc1ccc2n1[B-](F)(F)[N+]1=C(c3ccc[nH]3)C=CC1=C2 (centres unmarked) [Risperidone-2-NB590] | NTSR1 (Homo sapiens, UniProt P30989) | 1.00 |
| COc1ccccc1N1CCN(CCCCN2C(=O)c3ccc(CNC(=O)CCOCCNC(=O)c4ccc(CNC(=O)CCc5ccc6n5[B-](F)(F)[N+]5=C(c7ccc[nH]7)C=CC5=C6)cc4)cc3C2=O)CC1 [NAN-190-3-NB590] | NTSR1 (Homo sapiens, UniProt P30989) | 0.90 |
| O=C(CCOCCOCCOCCOCCNC(=O)CCc1ccc2n1[B-](F)(F)[N+]1=C(c3ccc[nH]3)C=CC1=C2)NCCCN1CCN(C2=Nc3ccccc3Oc3ccc(Cl)cc32)CC1 [Loxapine-a-2-NB590] | NTSR1 (Homo sapiens, UniProt P30989) | 0.99 |
| O=C(CCc1ccc2n1[B-](F)(F)[N+]1=C(c3ccc[nH]3)C=CC1=C2)NCc1ccc(C(=O)NCCOCCC(=O)N[C@@H]2CC[C@@]3(O)[C@H]4Cc5ccc(O)c6c5[C@@]3(CCN4CC3CC3)[C@H]2O6)cc1 [Naltrexone-3-NB590] | NTSR1 (Homo sapiens, UniProt P30989) | 1.07 |
| COc1ccccc1N1CCN(CCCCN2C(=O)c3ccc(CNC(=O)CCOCCOCCOCCOCCNC(=O)CCc4ccc5n4[B-](F)(F)[N+]4=C(c6ccc[nH]6)C=CC4=C5)cc3C2=O)CC1 [NAN-190-2-NB590] | NTSR1 (Homo sapiens, UniProt P30989) | 0.97 |
| CCCn1c(=O)c2[nH]c(-c3ccc(OCC(=O)NCCNC(=O)CCOCCNC(=O)c4ccc(CNC(=O)CCc5ccc6n5[B-](F)(F)[N+]5=C(c7ccc[nH]7)C=CC5=C6)cc4)cc3)nc2n(CCC)c1=O [XAC-3-NB590] | NTSR1 (Homo sapiens, UniProt P30989) | 0.98 |
| O=C(CCc1ccc2n1[B-](F)(F)[N+]1=C(c3ccc[nH]3)C=CC1=C2)NCCOCCOCCNC(=O)OCCOCCN1CCN(C2=Nc3ccccc3Sc3ccccc32)CC1 [Quetiapine-a-2-NB590] | NTSR1 (Homo sapiens, UniProt P30989) | 1.03 |
| CC(C)N(CC[C@H](c1ccccc1)c1cc(CCNC(=O)CCOCCOCCOCCOCCNC(=O)CCc2ccc3n2[B-](F)(F)[N+]2=C(c4ccc[nH]4)C=CC2=C3)ccc1O)C(C)C [Tolterodine-2-NB590] | NTSR1 (Homo sapiens, UniProt P30989) | 1.09 |
| Cc1cc2c(s1)Nc1ccccc1N=C2N1CCN(CCCNC(=O)CCOCCOCCOCCOCCNC(=O)CCc2ccc3n2[B-](F)(F)[N+]2=C(c4ccc[nH]4)C=CC2=C3)CC1 [Olanzapine-a-2-NB590] | NTSR1 (Homo sapiens, UniProt P30989) | 1.01 |
| N#CN=C(NCCCOc1cccc(CN2CCCCC2)c1)NCCNC(=O)CCOCCOCCOCCOCCNC(=O)CCc1ccc2n1[B-](F)(F)[N+]1=C(c3ccc[nH]3)C=CC1=C2 [Aminopotentidine-2-NB590] | NTSR1 (Homo sapiens, UniProt P30989) | 1.02 |
| CC(C)N(CC[C@H](c1ccccc1)c1cc(CCNC(=O)c2ccc(CNC(=O)CCc3ccc4n3[B-](F)(F)[N+]3=C(c5ccc[nH]5)C=CC3=C4)cc2)ccc1O)C(C)C [Tolterodine-BZ-NB590] | NTSR1 (Homo sapiens, UniProt P30989) | 1.02 |
